Data provenance is a melting point compilation (Tetko et al.; mined from patent text by program, amines drawn as free bases though some values may be those of a salt).

attribute-measured: melting point

Example cases with answers are listed next.
compound	melting point
CCOC(=O)Nc1c(Cl)cccc1[Si](C)(C)C	109 to 110 °C
CCc1nn(C[C@@H]2CCCN2C)c(C(N)=O)c1[N+](=O)[O-]	148 to 150 °C

Please look up its melting point: Cc1cc2c(c3c1CCC3)OC(CNC(=O)OCc1ccccc1)C2 (stereo not drawn) 109 to 113 °C

###

Measured melting point by item

Solved cases (9 shown):
molecule	result
CCOC(=O)C1(c2ccccc2)CCN(CCO)CC1	91.5 to 93 °C
COC(=O)c1cncn1C(c1ccccc1)c1ccccn1 (stereo not given)	96.3 °C
O=c1oc2cc(OCC3CO3)ccc2c2c1CCCC2 (stereo not given)	120 to 121 °C
CCc1c(C(=O)OC)ncc2[nH]c3cc(OC)c(OC)cc3c12	207 to 209 °C
CCOC(=O)c1c(C)nc2c(cnn2CCCC#N)c1OCC	99 °C
O=C1c2nc[nH]c2N(Cc2ccccc2)C2=NCCN12	262 to 264 °C
CCN1CC(=O)N(c2c(C)cccc2Cl)C1=S	124 to 126 °C
C=C(C)COc1c(C)c(CCC(O)CC(=O)CC(=O)OCC)c2c(c1C)CC(C)(C)O2 (stereo not given)	53.5 to 55 °C
Cc1c(Cl)c(F)cc(C(=O)O)c1Cl	167 to 169 °C

Could you share which melting point value was measured for O=C(NC(=O)c1c(F)cccc1F)Nc1ccc(C(O)(C(F)(F)F)C(F)(F)F)cc1 ? 205 to 207 °C
